Reference source for all entries: patent US8735360B2

target: GC-C (Homo sapiens); assay type: binding
Quantity measured: Ratio Ki pH 8/Ki pH 5
Answer field: number only, no words.

Which Ratio Ki pH 8/Ki pH 5 value belongs to CC(C)C[C@@H]1NC(=O)[C@H](CCC(=O)O)NC(=O)[C@@H]2CSSC[C@@H]3NC(=O)[C@H](C)NC(=O)[C@@H]4CCCN4C(=O)[C@H](CC(N)=O)NC(=O)[C@H](CSSC[C@H](NC(=O)[C@H](CC(=O)O)NC(=O)[C@H](CC(=O)O)NC(=O)[C@@H](N)CC(=O)O)C(=O)N2)NC(=O)[C@H](CSSC[C@@H](C(=O)N[C@@H](Cc2ccc(O)cc2)C(=O)O)NC(=O)CNC(=O)[C@H]([C@@H](C)O)NC3=O)NC1=O [Peptide 17, DDDCCELCCNPACTGCY] ?
6.35

---

Parameter Ratio EC50 pH 8/EC50 pH 5: see the listing below.
target: GC-C (Homo sapiens, UniProt P25092); type: cell-based; settings: cGMP response in T84 cells
Sequence (P25092 24-1073 limits assumed): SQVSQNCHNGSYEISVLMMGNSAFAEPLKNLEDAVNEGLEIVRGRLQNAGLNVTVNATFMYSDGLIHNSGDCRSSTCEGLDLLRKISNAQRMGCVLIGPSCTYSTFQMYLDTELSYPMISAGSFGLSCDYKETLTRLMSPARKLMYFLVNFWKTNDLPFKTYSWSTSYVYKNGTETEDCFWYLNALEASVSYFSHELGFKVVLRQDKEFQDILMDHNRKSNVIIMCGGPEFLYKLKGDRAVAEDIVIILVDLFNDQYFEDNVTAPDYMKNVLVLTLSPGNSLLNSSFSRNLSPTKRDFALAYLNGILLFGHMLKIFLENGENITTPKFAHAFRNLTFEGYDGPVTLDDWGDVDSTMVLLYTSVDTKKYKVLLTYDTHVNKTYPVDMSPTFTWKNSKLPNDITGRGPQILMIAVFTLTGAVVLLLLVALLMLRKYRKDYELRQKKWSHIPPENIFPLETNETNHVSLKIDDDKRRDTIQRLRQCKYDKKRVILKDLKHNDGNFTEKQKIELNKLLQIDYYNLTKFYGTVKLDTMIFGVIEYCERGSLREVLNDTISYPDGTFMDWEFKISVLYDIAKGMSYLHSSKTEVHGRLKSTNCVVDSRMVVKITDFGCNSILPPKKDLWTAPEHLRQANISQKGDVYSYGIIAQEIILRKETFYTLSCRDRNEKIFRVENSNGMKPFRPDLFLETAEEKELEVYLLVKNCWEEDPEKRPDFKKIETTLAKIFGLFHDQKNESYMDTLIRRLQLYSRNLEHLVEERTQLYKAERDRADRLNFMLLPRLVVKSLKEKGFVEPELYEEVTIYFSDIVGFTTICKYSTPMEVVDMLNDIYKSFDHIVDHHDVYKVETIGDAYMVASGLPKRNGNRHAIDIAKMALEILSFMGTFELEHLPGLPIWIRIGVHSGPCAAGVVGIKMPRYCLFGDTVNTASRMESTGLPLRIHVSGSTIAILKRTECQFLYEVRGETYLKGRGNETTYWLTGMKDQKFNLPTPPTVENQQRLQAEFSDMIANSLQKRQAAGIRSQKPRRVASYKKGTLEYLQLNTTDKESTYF

{"Compound": "C[C@H](N)C(=O)N[C@@H](CC(=O)O)C(=O)N[C@@H](CC(=O)O)C(=O)N[C@H]1CSSC[C@@H]2NC(=O)[C@@H]3CSSC[C@@H](C(=O)N[C@@H](Cc4ccc(O)cc4)C(=O)O)NC(=O)CNC(=O)[C@H]([C@@H](C)O)NC(=O)[C@H](CSSC[C@H](NC1=O)C(=O)N[C@@H](CCC(=O)O)C(=O)N[C@@H](Cc1ccc(O)cc1)C(=O)N3)NC(=O)[C@H](C)NC(=O)[C@@H]1CCCN1C(=O)[C@H](CC(N)=O)NC2=O [Peptide 9, ADDCCEYCCNPACTGCY]", "Target desc": "GC-C (Homo sapiens, UniProt P25092)", "Ratio EC50 pH 8/EC50 pH 5": 79.8}

Here's the next entry for you.
Reported Ratio EC50 pH 8/EC50 pH 5 for CC(C)C[C@@H]1NC(=O)[C@H](CCC(=O)O)NC(=O)[C@@H]2CSSC[C@@H]3NC(=O)[C@H](C)NC(=O)[C@@H]4CCCN4C(=O)[C@H](CC(N)=O)NC(=O)[C@H](CSSC[C@H](NC(=O)[C@H](CC(=O)O)NC(=O)[C@H](CC(=O)O)NC(=O)[C@@H](N)CC(N)=O)C(=O)N2)NC(=O)[C@H](CSSC[C@@H](C(=O)N[C@@H](Cc2ccc(O)cc2)C(=O)O)NC(=O)CNC(=O)[C@H]([C@@H](C)O)NC3=O)NC1=O [Peptide 11, NDDCCELCCNPACTGCY] : what is it?
2.7

---

target: GC-C (Homo sapiens, UniProt P25092); format: cell-based; details: cGMP response in T84 cells
Quantity measured: Ratio EC50 pH 8/EC50 pH 5
Answer with the value's number alone.

Name the reported Ratio EC50 pH 8/EC50 pH 5 value associated with the compound CC(C)C[C@@H]1NC(=O)[C@H](CCC(=O)O)NC(=O)[C@@H]2CSSC[C@@H]3NC(=O)[C@H](C)NC(=O)[C@@H]4CCCN4C(=O)[C@H](CC(N)=O)NC(=O)[C@H](CSSC[C@H](NC(=O)[C@H](CC(=O)O)NC(=O)[C@H](CC(=O)O)NC(=O)[C@H](C)N)C(=O)N2)NC(=O)[C@H](CSSC[C@@H](C(=O)N[C@@H](Cc2ccc(O)cc2)C(=O)O)NC(=O)CNC(=O)[C@H]([C@@H](C)O)NC3=O)NC1=O [Peptide 13, ADDCCELCCNPACTGCY]
62.5
